// provenance: patent US10519147B2

biological target: human Nav1.5 (Homo sapiens); construct: expressed in transfected cells; host or cells: HEK 293; test: IonWorks Quattro automated patch-clamp, Nav1.5 (selectivity against Nav1.7); type: cell-based; conditions: IonWorks measurement, HEK 293 cells, inactivated state block
Sequence (Q14524 whole entry): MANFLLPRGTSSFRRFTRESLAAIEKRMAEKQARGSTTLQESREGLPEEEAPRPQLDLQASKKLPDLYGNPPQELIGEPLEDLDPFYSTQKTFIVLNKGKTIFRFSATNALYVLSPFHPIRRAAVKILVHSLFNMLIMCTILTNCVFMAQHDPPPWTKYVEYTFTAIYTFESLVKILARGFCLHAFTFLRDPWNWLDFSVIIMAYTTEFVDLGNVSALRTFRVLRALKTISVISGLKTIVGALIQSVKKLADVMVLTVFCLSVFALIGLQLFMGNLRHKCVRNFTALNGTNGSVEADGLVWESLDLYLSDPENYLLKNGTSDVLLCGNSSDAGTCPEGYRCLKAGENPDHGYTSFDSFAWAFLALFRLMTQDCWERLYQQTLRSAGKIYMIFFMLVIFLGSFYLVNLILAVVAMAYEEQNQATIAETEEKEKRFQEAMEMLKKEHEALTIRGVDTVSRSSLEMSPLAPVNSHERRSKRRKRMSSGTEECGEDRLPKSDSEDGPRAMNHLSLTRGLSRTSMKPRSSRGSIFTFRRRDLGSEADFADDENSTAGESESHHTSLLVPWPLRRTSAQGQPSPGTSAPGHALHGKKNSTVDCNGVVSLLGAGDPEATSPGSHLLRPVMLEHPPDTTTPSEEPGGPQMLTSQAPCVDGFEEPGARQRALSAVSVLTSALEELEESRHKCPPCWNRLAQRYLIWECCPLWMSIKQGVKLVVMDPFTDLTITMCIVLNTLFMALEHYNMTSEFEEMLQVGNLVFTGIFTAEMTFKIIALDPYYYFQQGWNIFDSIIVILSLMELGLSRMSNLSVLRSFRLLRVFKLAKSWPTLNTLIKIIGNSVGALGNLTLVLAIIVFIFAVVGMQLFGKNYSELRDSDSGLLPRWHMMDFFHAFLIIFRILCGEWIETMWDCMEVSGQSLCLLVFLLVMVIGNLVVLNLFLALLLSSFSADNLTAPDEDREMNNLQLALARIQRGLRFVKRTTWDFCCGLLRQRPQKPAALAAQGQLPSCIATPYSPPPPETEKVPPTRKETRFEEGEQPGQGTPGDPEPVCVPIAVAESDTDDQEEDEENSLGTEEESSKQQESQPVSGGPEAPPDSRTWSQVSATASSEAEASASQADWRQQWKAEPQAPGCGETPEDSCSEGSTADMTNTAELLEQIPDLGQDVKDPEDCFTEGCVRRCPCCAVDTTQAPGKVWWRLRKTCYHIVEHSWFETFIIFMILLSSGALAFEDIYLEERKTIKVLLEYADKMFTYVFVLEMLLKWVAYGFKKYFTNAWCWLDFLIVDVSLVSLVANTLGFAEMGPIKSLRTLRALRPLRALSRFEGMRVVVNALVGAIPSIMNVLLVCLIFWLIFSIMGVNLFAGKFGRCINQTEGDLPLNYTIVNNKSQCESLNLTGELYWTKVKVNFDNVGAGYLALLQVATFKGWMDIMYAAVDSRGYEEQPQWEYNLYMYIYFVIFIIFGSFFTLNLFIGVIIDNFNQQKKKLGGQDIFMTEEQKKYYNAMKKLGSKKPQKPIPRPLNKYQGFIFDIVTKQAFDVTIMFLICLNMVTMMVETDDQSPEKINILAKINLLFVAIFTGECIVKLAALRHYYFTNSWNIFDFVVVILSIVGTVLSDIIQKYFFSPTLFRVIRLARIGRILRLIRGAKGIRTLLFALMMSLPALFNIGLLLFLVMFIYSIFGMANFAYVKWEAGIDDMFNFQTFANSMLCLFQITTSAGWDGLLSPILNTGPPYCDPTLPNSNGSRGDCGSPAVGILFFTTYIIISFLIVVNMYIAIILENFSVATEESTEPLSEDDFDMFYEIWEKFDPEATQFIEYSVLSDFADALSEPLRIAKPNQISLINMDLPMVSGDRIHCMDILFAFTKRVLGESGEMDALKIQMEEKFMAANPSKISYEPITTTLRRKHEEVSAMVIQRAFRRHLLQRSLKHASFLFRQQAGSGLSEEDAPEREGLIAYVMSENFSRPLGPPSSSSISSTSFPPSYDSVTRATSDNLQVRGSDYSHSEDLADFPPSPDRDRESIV
outcome.measure: ratio of Nav 1.7 potency:Nav 1.5 potency

{"columns": ["smiles.entry", "result"],
 "data": [
  ["O=S(=O)(Nc1nccs1)c1cc(Cl)c(NCCCCNC[C@@H]2CCCCN2)cc1F", "> 3440"]
]}

Exam item: Give recorded ratio of Nav 1.7 potency:Nav 1.5 potency with human Nav1.5 (Homo sapiens) for the following compound: NCCNCCCCNc1cc(F)c(S(=O)(=O)Nc2ncns2)cc1Br
Marked response: > 3400

Exam item: Subsequent entry: N[C@@H]1CCC[C@H]1NCCCCNc1cc(F)c(S(=O)(=O)Nc2ncns2)cc1F
Marked response: > 850

Exam item: Subsequent entry: N[C@@H]1CCC[C@H]1NCCCCNc1cc(F)c(S(=O)(=O)Nc2ncns2)cc1Cl
Marked response: > 5500

Exam item: Subsequent entry: NCC1(NCCCCNc2cc(F)c(S(=O)(=O)Nc3ncc(F)s3)cc2Cl)CCC1
Marked response: > 917

Exam item: Subsequent entry: C[C@H](CN)NCCCCNc1cc(F)c(S(=O)(=O)Nc2ncc(F)s2)cc1Cl
Marked response: > 1941
